# Test system: HS 578T breast
# TEST DETAILS: NCI tumour cell line growth inhibition, 48 h
OBSERVED PROPERTY: GI50

See these solved cases before continuing.
CC([C@H]1CCC2C3CCC4C[C@@H](N)CC[C@]4(C)C3CC[C@@]21C)N(C)C (stereo partly drawn)	3.35 µM
O=C(N/N=C/c1ccc(O)cc1O)c1cccc(Nc2ccnc(C(F)(F)F)c2)c1	7.71 µM

I'm curious: which GI50 was measured for Nc1ccc(-c2cccs2)cc1NC(=O)c1ccc(CCCC(=O)Nc2ccc(C3CC3N)cc2)cc1 (stereo not drawn) tested on HS 578T breast?
7.93 µM

I'm curious: which GI50 was measured for `Oc1c(Cl)cc(Cl)cc1C(c1cc(Cl)cc(Cl)c1O)C(Cl)(Cl)Cl` tested on HS 578T breast?
2.28 µM

I'm curious: which GI50 was measured for `COc1ccc2c(c1)C(=O)/C(=C/c1ccc([N+](=O)[O-])o1)O2` tested on HS 578T breast?
2.58 µM

I'm curious: which GI50 was measured for `O=C(O)c1c(=O)cccc2ssc12` tested on HS 578T breast?
2.43 µM

I'm curious: which GI50 was measured for `N#Cc1c(N)nc(N2CCOCC2)c(C#N)c1-c1ccccn1` tested on HS 578T breast?
> 100 µM

I'm curious: which GI50 was measured for `CCN(CC)C(=S)SCN1C(=O)c2ccccc2S1(=O)=O` tested on HS 578T breast?
> 100 µM

I'm curious: which GI50 was measured for `C/C(O)=C(\C#N)C(=O)Nc1ccc(C(F)(F)F)cc1` tested on HS 578T breast?
39.1 µM

I'm curious: which GI50 was measured for `Cc1cc(N2CCOCC2)nc(N(CCCNc2ccnc3cc(Cl)ccc23)Cc2ccco2)n1` tested on HS 578T breast?
4.03 µM
